target: FLAG-Ago1 (RISC) (Drosophila melanogaster, UniProt A1Z9J5 1-950); assay: RNA Bind-n-Seq (filter binding, sequencing, MLE); let-7 guide; 20 mM HEPES-KOH pH 7.9, 100 mM potassium acetate, 3.5 mM magnesium acetate, 0.05% CHAPS, 2 mM DTT, 8% glycerol, 0.05 ug/ul BSA, 0.01 mg/ml yeast tRNA, 100 nM RNA library, 25 C, 2 h; details: protein: recombinant; tags: FLAG; t2-t8 plus t1A
Sequence (A1Z9J5 entry or part of it): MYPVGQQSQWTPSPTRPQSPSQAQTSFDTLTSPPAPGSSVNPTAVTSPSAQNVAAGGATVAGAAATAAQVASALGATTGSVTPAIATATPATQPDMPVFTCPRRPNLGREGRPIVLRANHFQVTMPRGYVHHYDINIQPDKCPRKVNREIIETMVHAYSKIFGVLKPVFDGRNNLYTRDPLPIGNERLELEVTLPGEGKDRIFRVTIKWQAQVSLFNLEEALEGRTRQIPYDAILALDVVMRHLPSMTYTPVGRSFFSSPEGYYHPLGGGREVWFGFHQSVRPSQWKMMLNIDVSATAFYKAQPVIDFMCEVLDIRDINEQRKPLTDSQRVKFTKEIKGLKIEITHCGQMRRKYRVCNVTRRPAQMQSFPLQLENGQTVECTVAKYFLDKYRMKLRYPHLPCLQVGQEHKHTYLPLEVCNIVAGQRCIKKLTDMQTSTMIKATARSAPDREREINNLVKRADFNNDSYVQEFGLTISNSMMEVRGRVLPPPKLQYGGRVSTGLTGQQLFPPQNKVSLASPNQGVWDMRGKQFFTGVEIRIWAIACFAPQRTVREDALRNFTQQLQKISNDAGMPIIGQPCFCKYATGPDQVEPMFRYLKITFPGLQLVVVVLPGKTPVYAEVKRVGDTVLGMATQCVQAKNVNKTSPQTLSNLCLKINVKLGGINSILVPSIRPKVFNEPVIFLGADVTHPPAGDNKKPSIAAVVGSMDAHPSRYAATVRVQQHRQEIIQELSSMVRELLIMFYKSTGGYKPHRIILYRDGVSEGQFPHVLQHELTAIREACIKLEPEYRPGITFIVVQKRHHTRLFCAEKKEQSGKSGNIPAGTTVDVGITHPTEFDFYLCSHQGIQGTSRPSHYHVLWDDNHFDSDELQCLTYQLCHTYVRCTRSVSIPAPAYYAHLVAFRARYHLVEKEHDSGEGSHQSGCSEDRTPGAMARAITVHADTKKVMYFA

{"binder": "let-7 / 8mer (mixed, guide 5' phosphate) RNA 1: CUACCUCA RNA 2: UGAGGUAGUAGGUUGUAUAGU", "result.units": "pM", "Kd": 5}
